target: NHERF4_3, Q86UT5; test: holdup assay; design: key: below the threshold = too weak to quantify, mostly under pKd 3.1 to 4; settings: plain residues with an end cap or a label only (N-terminal biotin on a linker: ttds)
Sequence (Q86UT5 325-412): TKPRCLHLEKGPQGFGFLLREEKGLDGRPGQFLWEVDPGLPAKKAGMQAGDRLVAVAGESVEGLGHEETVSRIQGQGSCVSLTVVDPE
quantity_kind: pKd

RHTTSTETAV [HPV30-E6, P36809] :: below the threshold
QRQARSETLV [HPV59-E6, Q81964] :: 4.28
SSLQSLETSV [ATP2B4, P23634] :: below the threshold
SKPTRRETEV [HPV35-E6, P27228] :: 3.78
RLQRRRETQV [HPV18-E6, P06463] :: below the threshold

I am curious: what pKd value has been reported for RPLPRKVSQL [DOCK4, Q8N1I0] ?
4.21

I am curious: what pKd value has been reported for RLPKIKETTV [FRMPD4, Q14CM0] ?
below the threshold

I am curious: what pKd value has been reported for SGSRPSATVV [HPV73-E6, Q82005] ?
below the threshold
